experiment: Lipophilicity, log P of the compound; conditions: octanol/water
Readout kind: logP
Number only, no unit.

Name the reported logP value associated with the compound "Oc1ccc(/C=C/c2cc(O)cc(O)c2)cc1"
3.1
